Target: T1, human TREM2 (human) (UniProt Q9NZC2)
T1 sequence (looked up): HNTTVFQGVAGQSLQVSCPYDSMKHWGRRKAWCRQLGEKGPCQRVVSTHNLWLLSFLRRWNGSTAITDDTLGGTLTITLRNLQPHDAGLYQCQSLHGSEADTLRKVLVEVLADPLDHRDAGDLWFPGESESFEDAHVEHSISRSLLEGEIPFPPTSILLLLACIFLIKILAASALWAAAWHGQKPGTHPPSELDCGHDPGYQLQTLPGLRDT
Assay: 2nd screen, 2 nM Ab
Listing of recorded Binding Signal (fold over 6E7 parental antibody) by entry.
Report only the number, with the unit fold understood.

Consider the reported Binding Signal (fold over 6E7 parental antibody) for these binders:
6E7 variant V51 (antibody, V domains shown) VH: EVQLVQSGAEVKKPGESLKISCKGSGYSFTSYWIAWVRQMPGKGLEWMGIIYPGDSDVRYSPSFQGQVTISADKSISTAYLQWSSLKASDTAMYFCARGRTFYYDSSDYFDNWGQGTLVTVSS VL: DIQMTQSPSSVSASVGDRVTITCRASQGISSWLAWYQQKPGKAPKLLIYAASSRQNGVPSRFSGSGSGTDFTLTISSLQPEDFATYFCQQADSFPRTFGQGTKLEIK	1.83
6E7 variant V40 (antibody, V domains shown) VH: EVQLVQSGAEVKKPGESLKISCKGSGYSFGSYWIAWVRQMPGKGLEWMGIIYPGDSDVRYSPSFQGQVTISADKSISTAYLQWSSLKASDTAMYFCARQRTFYYDSSDYSDYWGQGTLVTVSS VL: DIQMTQSPSSVSASVGDRVTITCRASQGISSWLAWYQQKPGKAPKLLIYAASSLQLGVPSRFSGSGSGTDFTLTISSLQPEDFATYFCQQADRFPRTFGQGTKLEIK	3.41
6E7 variant V39 (antibody, V domains shown) VH: EVQLVQSGAEVKKPGESLKISCKGSGYSFGSYWIAWVRQMPGKGLEWMGIIYPGDSDTRYNPSFQGQVTISADKSISTAYLQWSSLKASDTAMYFCARGRTFYYDSSDYFDYWGQGTLVTVSS VL: DIQMTQSPSSVSASVGDRVTITCRASQGISSWLAWYQQKPGKAPKLLIYAASSLVNGVPSRFSGSGSGTDFTLTISSLQPEDFATYFCQQADSSPRTFGQGTKLEIK	5.11
6E7 variant V63 (antibody, V domains shown) VH: EVQLVQSGAEVKKPGESLKISCKGSGYSFRSYWIAWVRQMPGKGLEWMGIIYPGDSDTRYSPSFQGQVTISADKSISTAYLQWSSLKASDTAMYFCARSRTFYYDSSDYFDYWGQGTLVTVSS VL: DIQMTQSPSSVSASVGDRVTITCRASQGISSWLAWYQQKPGKAPKLLIYAASSLQRGVPSRFSGSGSGTDFTLTISSLQPEDFATYFCQQADRFPRTFGQGTKLEIK	4.91

Value lookup for Binding Signal (fold over 6E7 parental antibody); key = 6E7 variant V36 (antibody, V domains shown) VH: EVQLVQSGAEVKKPGESLKISCKGSGYSFTSYWLAWVRQMPGKGLEWMGIIYPGDSDTRYSPSFQGQVTISADKSISTAYLQWSSLKASDTAMYFCARSRTFYYDSSDYFDYWGQGTLVTVSS VL: DIQMTQSPSSVSASVGDRVTITCRASQGISSWLAWYQQKPGKAPKLLIYAASSRQNGVPSRFSGSGSGTDFTLTISSLQPEDFATYFCQQADSYPRTFGQGTKLEIK 4
